Target: UniProt Q12809
Sequence (Q12809 whole entry): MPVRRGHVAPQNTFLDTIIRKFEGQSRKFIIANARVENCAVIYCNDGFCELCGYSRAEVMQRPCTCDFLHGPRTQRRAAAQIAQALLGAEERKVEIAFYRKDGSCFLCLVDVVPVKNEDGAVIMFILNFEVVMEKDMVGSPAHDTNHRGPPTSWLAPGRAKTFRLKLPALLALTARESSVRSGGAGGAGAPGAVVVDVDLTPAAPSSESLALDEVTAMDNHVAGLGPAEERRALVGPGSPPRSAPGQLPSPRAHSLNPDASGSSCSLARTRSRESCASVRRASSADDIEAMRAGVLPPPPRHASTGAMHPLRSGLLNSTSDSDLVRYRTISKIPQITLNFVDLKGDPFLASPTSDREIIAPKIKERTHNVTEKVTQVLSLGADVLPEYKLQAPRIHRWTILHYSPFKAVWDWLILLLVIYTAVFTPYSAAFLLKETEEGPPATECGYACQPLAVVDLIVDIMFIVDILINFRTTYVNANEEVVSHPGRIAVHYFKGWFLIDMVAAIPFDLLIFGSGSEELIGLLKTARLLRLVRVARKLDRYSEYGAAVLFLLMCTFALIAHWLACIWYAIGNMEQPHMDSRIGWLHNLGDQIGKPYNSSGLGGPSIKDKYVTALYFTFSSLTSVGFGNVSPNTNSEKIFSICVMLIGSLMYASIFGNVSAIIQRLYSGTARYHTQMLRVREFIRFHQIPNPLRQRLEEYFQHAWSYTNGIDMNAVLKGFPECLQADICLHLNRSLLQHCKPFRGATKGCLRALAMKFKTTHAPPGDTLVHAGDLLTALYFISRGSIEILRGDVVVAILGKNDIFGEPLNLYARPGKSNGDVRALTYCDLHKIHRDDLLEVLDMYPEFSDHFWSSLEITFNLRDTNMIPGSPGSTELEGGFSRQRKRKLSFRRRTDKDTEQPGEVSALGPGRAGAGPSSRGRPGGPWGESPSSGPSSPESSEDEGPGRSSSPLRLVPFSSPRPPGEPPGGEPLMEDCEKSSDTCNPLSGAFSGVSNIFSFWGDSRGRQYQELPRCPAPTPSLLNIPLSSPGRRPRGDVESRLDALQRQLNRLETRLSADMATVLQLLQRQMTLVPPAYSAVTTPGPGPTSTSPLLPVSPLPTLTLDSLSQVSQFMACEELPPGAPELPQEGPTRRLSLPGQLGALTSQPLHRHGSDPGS
Assay: hERG assay using IonWorks Quattro
Format: cell-based
Settings: IonWorks protocol; read-out: IW hERG IC50
Description: Example 127A, Using IonWorks Quattro Solutions for recording hERG currents were: This was followed by a […] step of is to −30 mV to evoke the hERG tail current. This sequence was repeated 5 times at a frequency of 0.25 Hz (see FIG. 3). Currents were measured from the tail step at the 5th pulse and referenced to the holding current. Compounds were then incubated for 6-7 minutes prior to a second measurement of the hERG signal using an identical pulse train.
Counter-ions that a name gives are not always drawn.
metric: IC50 (µM)
Respond numerically; units are µM and should not be typed.

Worked cases, IC50 given:
                                   molecule  metric  observedresult
0  CN(C)C(=O)CCc1cccc(C[C@H](N)c2ccccc2-c2noc3ccccc23)n1 [Example 109, hydrochloride]    IC50             4.3
1  CC(C)(c1ccccn1)[C@H](N)c1ccccc1-c1noc2ccccc12 [Example 49, hydrochloride]    IC50             5.2
2  N[C@@H](Cc1cccc(CCO)n1)c1ccccc1-c1noc2ccccc12 [Example 100, hydrochloride]    IC50            12.8

Please turn your attention to the following entry.
In: I am curious: what IC50 value has been reported for Cn1cc(-c2cccc(C[C@H](N)c3ccccc3-c3noc4ccccc34)n2)cn1 [Example 90, hydrochloride] ?
Out: 4.1

====

Biological target: UniProt Q9UL51
Test: HCN2 current assay using PatchXpress 7000A
Type: cell-based
Conditions: PatchXpress protocol; read-out: PX HCN2 IC50
Structures can show the parent of a compound that is named as a salt.
metric: pIC50
Notebook: values listed as pIC50 are -log10 of the concentration (mol/L).

In [3]: df
Out[3]:
                                   compound  metric  observedresult
0  Cc1ccc(S(C)(=O)=O)nc1C[C@H](N)c1ccccc1-c1noc2ccccc12 [Example 125, hydrochloride]   pIC50            6.62
1  N[C@@H](Cc1cc(Br)ccn1)c1ccccc1-c1noc2ccccc12 [Example 117, hydrochloride]   pIC50            5.85
2  N[C@@H](Cc1cccc(N2CCCC2)n1)c1ccccc1-c1noc2ccccc12 [Example 119, hydrochloride]   pIC50            6.10

Please turn your attention to the following entry.
In: I am curious: what pIC50 value has been reported for Cc1noc(C)c1-c1cccc(C[C@H](N)c2ccccc2-c2noc3ccccc23)n1 [Example 94, hydrochloride] ?
Out: 5.92

====

Biological target: MDR1 (P-glycoprotein) (Homo sapiens (Human))
Sequence (P08183 whole entry): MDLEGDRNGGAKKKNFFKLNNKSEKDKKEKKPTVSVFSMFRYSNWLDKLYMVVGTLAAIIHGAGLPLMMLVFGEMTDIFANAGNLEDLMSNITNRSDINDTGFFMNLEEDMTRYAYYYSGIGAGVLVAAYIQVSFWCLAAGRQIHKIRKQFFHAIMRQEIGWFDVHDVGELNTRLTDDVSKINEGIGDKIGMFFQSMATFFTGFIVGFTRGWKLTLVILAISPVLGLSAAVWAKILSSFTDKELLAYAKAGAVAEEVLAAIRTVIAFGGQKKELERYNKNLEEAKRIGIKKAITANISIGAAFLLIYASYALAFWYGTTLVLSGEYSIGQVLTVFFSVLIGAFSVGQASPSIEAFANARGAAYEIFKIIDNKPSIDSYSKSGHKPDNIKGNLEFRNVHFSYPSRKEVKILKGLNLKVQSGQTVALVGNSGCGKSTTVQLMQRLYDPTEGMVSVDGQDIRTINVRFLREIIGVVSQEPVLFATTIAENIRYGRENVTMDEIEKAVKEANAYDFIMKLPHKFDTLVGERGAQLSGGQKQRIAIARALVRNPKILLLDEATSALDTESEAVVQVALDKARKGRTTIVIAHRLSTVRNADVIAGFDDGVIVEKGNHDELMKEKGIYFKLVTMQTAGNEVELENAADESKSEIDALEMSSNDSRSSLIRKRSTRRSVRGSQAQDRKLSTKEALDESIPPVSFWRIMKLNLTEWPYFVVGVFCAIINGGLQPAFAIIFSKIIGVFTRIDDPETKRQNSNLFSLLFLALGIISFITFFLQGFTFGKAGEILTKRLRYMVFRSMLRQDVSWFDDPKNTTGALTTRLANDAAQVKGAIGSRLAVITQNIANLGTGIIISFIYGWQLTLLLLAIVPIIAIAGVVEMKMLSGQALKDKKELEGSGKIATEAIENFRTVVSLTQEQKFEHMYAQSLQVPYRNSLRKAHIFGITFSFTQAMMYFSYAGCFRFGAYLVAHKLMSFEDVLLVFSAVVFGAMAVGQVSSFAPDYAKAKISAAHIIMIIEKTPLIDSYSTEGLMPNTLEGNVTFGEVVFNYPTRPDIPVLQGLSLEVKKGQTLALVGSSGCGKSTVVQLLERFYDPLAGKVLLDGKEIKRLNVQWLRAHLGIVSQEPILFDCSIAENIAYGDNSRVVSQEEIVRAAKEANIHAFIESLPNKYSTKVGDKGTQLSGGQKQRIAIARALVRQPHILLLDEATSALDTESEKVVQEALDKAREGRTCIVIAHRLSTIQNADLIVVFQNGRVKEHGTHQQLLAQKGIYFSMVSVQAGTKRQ
Test: in vitro
Conditions: dog, MDCK-MDR1, pH 7.4
Counter-ions that a name gives are not always drawn.
metric: efflux ratio at 1 h, 10 μM
I'd appreciate a reply containing only the number, no unit.

Worked cases, efflux ratio at 1 h, 10 μM given:
>>> df
                                   compound                           systemundertest  observedresult
0  CN(C)C(=O)c1ccc(F)c(C[C@H](N)c2ccccc2-c2noc3ccccc23)n1 [Example 74, hydrochloride]  MDR1 (P-glycoprotein) (Homo sapiens (Human))            16.7
1  N[C@@H](Cc1ncccn1)c1ccccc1-c1noc2ccccc12  MDR1 (P-glycoprotein) (Homo sapiens (Human))             2.5
2  Cc1ccc2c(-c3ccccc3[C@@H](N)Cc3nc(S(C)(=O)=O)ccc3F)noc2c1 [Example 11, hydrochloride]  MDR1 (P-glycoprotein) (Homo sapiens (Human))             5.2

In: I am curious: what efflux ratio at 1 h, 10 μM value has been reported for Cc1cccc(-c2noc3ccccc23)c1[C@@H](N)Cc1ccccn1 [Example 84, hydrochloride] ?
Out: 0.8

In: For CNc1cccc(C[C@H](N)c2ccccc2-c2noc3cc(C#N)ccc23)n1 [Example 97, dihydrochloride] then?
Out: 12.2

In: For CN(C)C(=O)c1cccc(C[C@H](N)c2ccccc2-c2noc3ccccc23)n1 [Example 89, hydrochloride] then?
Out: 24.6

In: For CS(=O)(=O)c1ccc(F)c(C[C@H](N)c2ccccc2-c2noc3cc(Cl)ccc23)n1 [Example 13, hydrochloride] then?
Out: 6.2

====

Molecular target: HCN2 (Homo sapiens (Human), UniProt Q9UL51)
Sequence (Q9UL51 whole entry): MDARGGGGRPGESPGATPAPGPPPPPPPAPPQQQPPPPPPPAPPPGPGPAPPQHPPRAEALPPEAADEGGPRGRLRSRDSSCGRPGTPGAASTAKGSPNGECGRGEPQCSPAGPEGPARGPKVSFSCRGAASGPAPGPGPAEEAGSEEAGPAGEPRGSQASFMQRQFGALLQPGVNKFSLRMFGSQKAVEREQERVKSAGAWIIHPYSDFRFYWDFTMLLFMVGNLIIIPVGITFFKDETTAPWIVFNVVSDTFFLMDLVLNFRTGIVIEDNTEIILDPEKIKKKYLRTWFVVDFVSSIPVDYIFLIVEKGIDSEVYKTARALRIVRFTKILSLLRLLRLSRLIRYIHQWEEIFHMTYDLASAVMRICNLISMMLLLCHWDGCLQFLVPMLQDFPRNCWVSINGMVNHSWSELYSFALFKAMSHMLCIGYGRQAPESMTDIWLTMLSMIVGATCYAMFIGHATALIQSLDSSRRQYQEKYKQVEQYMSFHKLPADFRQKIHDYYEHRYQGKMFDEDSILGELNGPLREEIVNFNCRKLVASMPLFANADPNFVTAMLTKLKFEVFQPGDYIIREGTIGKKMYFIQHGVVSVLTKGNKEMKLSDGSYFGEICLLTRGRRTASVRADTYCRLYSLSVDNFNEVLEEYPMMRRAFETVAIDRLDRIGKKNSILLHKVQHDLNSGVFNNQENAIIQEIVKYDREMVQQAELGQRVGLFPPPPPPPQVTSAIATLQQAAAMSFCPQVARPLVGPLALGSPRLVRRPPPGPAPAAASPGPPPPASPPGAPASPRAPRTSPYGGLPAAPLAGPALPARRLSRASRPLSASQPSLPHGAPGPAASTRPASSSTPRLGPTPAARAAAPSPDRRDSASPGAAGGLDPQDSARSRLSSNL
Test: HCN2 current assay using PatchXpress 7000A
Assay type: cell-based
Details: PatchXpress protocol; read-out: PX HCN2 IC50
Counter-ions that a name gives are not always drawn.
metric: IC50 (µM)
Respond numerically; units are µM and should not be typed.

In [3]: df
Out[3]:
                                   molecule  metric  unitofmeasurement  observedresult
0  CN(C)C(=O)CCc1cccc(C[C@H](N)c2ccccc2-c2noc3ccccc23)n1 [Example 109, hydrochloride]    IC50                 µM             2.4

Please turn your attention to the following entry.
In: Param readout = IC50; param system = HCN2 (Homo sapiens (Human), UniProt Q9UL51); param query = N#Cc1ccc(-c2noc3ccccc23)c([C@@H](N)Cc2ccccn2)c1 [Example 37, hydrochloride] ; response: value
Out: 14

====

Molecular target: UniProtKB P08183
Assay: in vitro
Conditions: dog, MDCK-MDR1, pH 7.4
Structures can show the parent of a compound that is named as a salt.
The entries below are paired with their reported efflux ratio at 1 h, 10 μM.
I'd appreciate a reply containing only the number, no unit.

>>> print(df.to_string())
                                   molecule  observedresult
0  Cc1ccc(-c2noc3ccccc23)c([C@@H](N)Cc2ccccn2)c1 [Example 36, hydrochloride]             0.8
1  N#Cc1ccc2c(-c3ccccc3[C@@H](N)Cc3cccc(OCCO)n3)noc2c1 [Example 99, hydrochloride]            78.5
2  NC(=O)c1ccc(F)c(C[C@H](N)c2ccccc2-c2noc3ccccc23)n1 [Example 72, formate]            11.3
3  Cc1ccc2c(-c3ccccc3[C@@H](N)Cc3nc(S(C)(=O)=O)ccc3C)noc2c1 [Example 19, hydrochloride]            12.4
4  N#Cc1ccc2c(-c3ccccc3[C@@H](N)Cc3cccc(C#N)n3)noc2c1             4.5

In: I am curious: what efflux ratio at 1 h, 10 μM value has been reported for N[C@@H](Cc1ccccn1)c1c(F)cccc1-c1noc2ccccc12 [Example 111, hydrochloride] ?
Out: 1

In: For Cc1ccc(S(C)(=O)=O)nc1C[C@H](N)c1ccccc1-c1noc2cc(F)ccc12 [Example 24, hydrochloride] then?
Out: 10.4

In: For "COCc1ccc2c(-c3ccccc3[C@@H](N)Cc3ccccn3)noc2c1" then?
Out: 2.7

====

The entries below are paired with their reported IC50.
Target: HCN2 (Homo sapiens (Human), UniProt Q9UL51)
Experiment: HCN2 current assay using PatchXpress 7000A
Assay type: cell-based
Conditions: PatchXpress protocol; read-out: PX HCN2 IC50
Counter-ions that a name gives are not always drawn.

Worked cases, IC50 given:
>>> df
                                   compound  metric  observedresult
0  CC(O)c1ccc2c(-c3ccccc3[C@@H](N)Cc3ccccn3)noc2c1 (stereo partly shown) [Example 35]    IC50         8900 nM
1  N[C@@H](Cc1ccc(Br)cn1)c1ccccc1-c1noc2ccccc12 [Example 88, hydrochloride]    IC50         2700 nM
2  C#Cc1ccc2c(-c3ccccc3[C@@H](N)Cc3ccccn3)noc2c1 [Example 31, hydrochloride]    IC50         1600 nM
3  CC(C)(c1ccccn1)[C@H](N)c1ccccc1-c1noc2ccccc12 [Example 49, hydrochloride]    IC50         6500 nM

In: I am curious: what IC50 value has been reported for N[C@@H](Cc1ncccc1F)c1ccccc1-c1noc2ccccc12 [Example 63, hydrochloride] ?
Out: 500 nM

In: For Nc1cccc(C[C@H](N)c2ccccc2-c2noc3ccccc23)n1 [Example 121, hydrochloride] then?
Out: 1300 nM

In: For N#Cc1cccnc1C[C@H](N)c1ccccc1-c1noc2ccccc12 [Example 75] then?
Out: 1200 nM

In: For CCc1cccc(C[C@H](N)c2ccccc2-c2noc3ccccc23)n1 [Example 101, hydrochloride] then?
Out: 700 nM

In: For N[C@@H](Cc1ccccn1)c1ccccc1-c1noc2cc(C#CCO)ccc12 [Example 32, hydrochloride] then?
Out: 8500 nM

In: For CN(C)C(=O)c1ccc(F)c(C[C@H](N)c2ccccc2-c2noc3ccccc23)n1 [Example 74, hydrochloride] then?
Out: 1800 nM

====

The entries below are paired with their reported pIC50.
Biological target: HCN4 (Homo sapiens (Human), UniProt Q9Y3Q4)
Sequence (Q9Y3Q4 whole entry, species assumed): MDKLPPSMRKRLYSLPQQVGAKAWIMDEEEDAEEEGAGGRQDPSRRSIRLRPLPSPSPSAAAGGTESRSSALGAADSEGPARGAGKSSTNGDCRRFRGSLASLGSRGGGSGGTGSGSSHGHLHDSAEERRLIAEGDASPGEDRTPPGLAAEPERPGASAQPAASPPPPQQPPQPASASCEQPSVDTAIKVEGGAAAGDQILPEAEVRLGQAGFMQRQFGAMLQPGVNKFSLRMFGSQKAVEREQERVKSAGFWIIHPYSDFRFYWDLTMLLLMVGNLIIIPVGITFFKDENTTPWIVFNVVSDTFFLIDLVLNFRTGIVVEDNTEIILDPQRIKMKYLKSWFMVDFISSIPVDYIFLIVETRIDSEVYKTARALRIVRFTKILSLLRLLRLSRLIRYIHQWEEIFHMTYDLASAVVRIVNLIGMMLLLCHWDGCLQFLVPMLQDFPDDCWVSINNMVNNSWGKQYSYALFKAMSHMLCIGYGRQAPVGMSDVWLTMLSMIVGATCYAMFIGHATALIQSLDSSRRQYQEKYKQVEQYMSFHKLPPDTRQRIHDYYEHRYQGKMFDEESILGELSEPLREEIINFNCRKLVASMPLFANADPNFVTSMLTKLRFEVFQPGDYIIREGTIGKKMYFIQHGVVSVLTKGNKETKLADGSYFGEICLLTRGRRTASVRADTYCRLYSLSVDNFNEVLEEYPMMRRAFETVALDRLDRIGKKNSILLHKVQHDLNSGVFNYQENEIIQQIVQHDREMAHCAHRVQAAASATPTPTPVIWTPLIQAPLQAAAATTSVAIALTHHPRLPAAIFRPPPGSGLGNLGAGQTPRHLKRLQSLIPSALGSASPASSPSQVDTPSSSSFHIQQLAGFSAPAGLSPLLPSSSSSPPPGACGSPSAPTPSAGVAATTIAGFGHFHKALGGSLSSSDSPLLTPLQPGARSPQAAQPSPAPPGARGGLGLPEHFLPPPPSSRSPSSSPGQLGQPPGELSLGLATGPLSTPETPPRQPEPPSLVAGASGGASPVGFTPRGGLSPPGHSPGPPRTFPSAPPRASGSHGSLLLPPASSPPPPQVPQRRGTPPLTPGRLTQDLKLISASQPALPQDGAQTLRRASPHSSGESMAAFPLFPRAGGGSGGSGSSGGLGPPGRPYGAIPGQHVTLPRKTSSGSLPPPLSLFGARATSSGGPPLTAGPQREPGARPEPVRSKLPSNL
Experiment: HCN4 current assay using PatchXpress 7000A
Assay type: cell-based
Conditions: PatchXpress protocol; read-out: PX HCN4 IC50
Structures can show the parent of a compound that is named as a salt.
Notebook: values listed as pIC50 are -log10 of the concentration (mol/L).

Worked cases, pIC50 given:
In [3]: df
Out[3]:
                                   molecule                           systemundertest  observedresult
0  Cc1cccc(-c2noc3ccccc23)c1[C@@H](N)Cc1ccccn1 [Example 84, hydrochloride]  HCN4 (Homo sapiens (Human), UniProt Q9Y3Q4)            4.57
1  N[C@@H](Cc1cccc(N2CCCC2)n1)c1ccccc1-c1noc2ccccc12 [Example 119, hydrochloride]  HCN4 (Homo sapiens (Human), UniProt Q9Y3Q4)            5.68
2  N#Cc1cccnc1C[C@H](N)c1ccccc1-c1noc2ccccc12  HCN4 (Homo sapiens (Human), UniProt Q9Y3Q4)            5.18
3  COCCNc1cccc(C[C@H](N)c2ccccc2-c2noc3ccccc23)n1 [Example 52, hydrochloride]  HCN4 (Homo sapiens (Human), UniProt Q9Y3Q4)            5.22
4  Cc1ccc(C#N)nc1C[C@H](N)c1ccccc1-c1noc2ccccc12  HCN4 (Homo sapiens (Human), UniProt Q9Y3Q4)            5.14
5  C#Cc1ccc2c(-c3ccccc3[C@@H](N)Cc3ccccn3)noc2c1 [Example 31, hydrochloride]  HCN4 (Homo sapiens (Human), UniProt Q9Y3Q4)            5.17
6  Cc1ccc(C)c(C[C@H](N)c2ccccc2-c2noc3ccccc23)n1  HCN4 (Homo sapiens (Human), UniProt Q9Y3Q4)            5.17
7  COc1ccnc(C[C@H](N)c2ccccc2-c2noc3ccccc23)c1  HCN4 (Homo sapiens (Human), UniProt Q9Y3Q4)            4.72

Please turn your attention to the following entry.
In: Param readout = pIC50; param system = HCN4 (Homo sapiens (Human), UniProt Q9Y3Q4); param query = Cc1cccc(C[C@H](N)c2c(F)cccc2-c2noc3ccccc23)n1 [Example 112, hydrochloride] ; response: value
Out: 5.38
